% labelled HEL cells values, listed per item
biological target: T1, CD117 (c-Kit, stem cell factor receptor) on HEL or TF1 human erythroleukemia cells (human, UniProt P10721 26-976); experiment: flow cytometry on HEL cells; 100 µl/2.10^5 cells
T1 construct: whole, on cells
T1 sequence (P10721 26-976): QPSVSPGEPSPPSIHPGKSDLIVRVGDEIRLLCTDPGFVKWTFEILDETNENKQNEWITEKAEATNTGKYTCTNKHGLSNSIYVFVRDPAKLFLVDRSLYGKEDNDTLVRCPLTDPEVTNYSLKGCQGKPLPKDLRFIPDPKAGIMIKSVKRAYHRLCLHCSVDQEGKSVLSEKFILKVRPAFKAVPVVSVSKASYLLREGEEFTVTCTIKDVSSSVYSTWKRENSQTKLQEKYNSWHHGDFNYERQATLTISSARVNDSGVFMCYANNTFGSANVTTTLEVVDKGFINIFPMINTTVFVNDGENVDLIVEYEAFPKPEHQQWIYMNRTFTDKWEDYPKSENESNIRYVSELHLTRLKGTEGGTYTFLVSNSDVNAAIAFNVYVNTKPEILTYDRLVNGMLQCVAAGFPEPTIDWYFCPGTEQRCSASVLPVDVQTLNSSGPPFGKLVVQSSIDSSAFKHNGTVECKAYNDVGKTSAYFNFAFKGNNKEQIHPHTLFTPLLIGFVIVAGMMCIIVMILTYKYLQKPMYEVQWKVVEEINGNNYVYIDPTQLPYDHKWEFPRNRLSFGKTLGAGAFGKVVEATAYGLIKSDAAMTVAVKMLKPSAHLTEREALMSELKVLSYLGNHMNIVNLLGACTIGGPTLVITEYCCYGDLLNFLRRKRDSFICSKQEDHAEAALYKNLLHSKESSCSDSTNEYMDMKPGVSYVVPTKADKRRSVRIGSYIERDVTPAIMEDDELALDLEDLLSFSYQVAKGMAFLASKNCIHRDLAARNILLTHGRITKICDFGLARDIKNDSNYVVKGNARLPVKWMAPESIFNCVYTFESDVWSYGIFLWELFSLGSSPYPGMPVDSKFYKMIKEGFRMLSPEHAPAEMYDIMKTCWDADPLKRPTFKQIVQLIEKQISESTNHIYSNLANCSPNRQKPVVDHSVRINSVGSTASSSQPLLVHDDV
Write it as a number; the unit % goes unstated.

Solved cases below.
| BINDER | QUANTITY NAME | UNIT TEXT | VALUE |
| --- | --- | --- | --- |
| ch36-05 chimeric monoclonal antibody (antibody, human IgG1, kappa, V domains shown, Murine VH + human IgG1 Fc; murine VL + human Kappa; also called chR036-05; chR036.05) VH: QVQLQQSGAELVKPGAPVKLSCKASGYTFTRYWMNWVKQRPGRGLEWIGRIDPSDSEIHYNQNFKDKATLTVDKSSSTAYIQLSSLTSEDSAVYYCARDYGSDYYAMDYWGQGTSVTVSS VL: QIVLTQSPAIMSASLGEEITLTCSASSSVSYMHWYQQKSGTSPKLLIYSTSNLTSGVPSRFSGSGSGTFYSLTISSVEAEDAADYYCHQWSSYPFGGGTKLEIKR | % labelled HEL cells | % | 80 |
| humanized antibody 36-5 Hz121 (antibody, human IgG1, V domains shown, The variable regions were cloned into vector p3U containing the human IgG1 constant region; also called H-36.5Hz30 + L-36.5Hz31) VH: QVQLVQSGAEVKKPGASVKVSCKASGYTFTSYWMNWVRQAPGQGLEWMGRIDPSDSEIHYNQKFKGRVTMTVDTSTSTAYMELSSLRSEDTAVYYCARDYGSDYYAMDYWGQGTLVTVSS VL: QIVLTQSPAFQSVTPGEKVTITCSASQSVSYMHWYQQKSGTSPKLLIYSTSNLTSGVPSRFSGSGSGTDYTLTISSLEAEDAATYYCHQWSSYPFGGGTKVEIK | % labelled HEL cells | % | 73 |
| humanized antibody 36-5 Hz114 (antibody, human IgG1, V domains shown, The variable regions were cloned into expression vector p3U containing the human IgG1 constant region; also called H-36.5Hz27 + L-36.5Hz31) VH: QVQLVQSGAEVKKPGASVKVSCKASGYTFTSYWMNWVRQAPGQGLEWMGRIDPSDSEIHYNQKFKDKATLTVDKSTSTAYMELSSLRSEDTAVYYCARDYGSDYYAMDYWGQGTLVTVSS VL: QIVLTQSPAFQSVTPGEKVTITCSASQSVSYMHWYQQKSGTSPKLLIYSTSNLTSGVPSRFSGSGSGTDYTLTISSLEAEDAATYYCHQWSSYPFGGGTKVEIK | % labelled HEL cells | % | 74 |

Kindly consider the entry below.
If you can, please state the reported % labelled HEL cells value of humanized antibody 36-5 Hz128 (antibody, human IgG1, V domains shown, The variable regions were cloned into vector p3U containing the human IgG1 constant region; also called H-36.5Hz31 + L-36.5Hz31) VH: QVQLVQSGAEVKKPGASVKVSCKASGYTFTSYWMNWVRQAPGQGLEWIGRIDPSDSEIHYNQKFKGRVTMTVDTSTSTAYMELSSLRSEDTAVYYCARDYGSDYYAMDYWGQGTLVTVSS VL: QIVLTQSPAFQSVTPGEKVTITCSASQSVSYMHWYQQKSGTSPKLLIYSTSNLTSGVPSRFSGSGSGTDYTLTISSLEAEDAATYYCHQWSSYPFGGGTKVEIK .
94
